# MIC90 per record follows
- System: Parvimonas micra
- assay.explanation: Antimicrobial activity against Parvimonas micra under anaerobic conditions after 44 hrs by CLSI-M11-47 protocol based agar dilution method
- Format: functional
recorded.metric: MIC90

>>> print(df.to_string())
                                item_smiles   target_of_assay  recorded_metric  observed_result
0  CCO/N=C(\C(=O)N[C@@H]1C(=O)N2C(C(=O)[O-])=C(Sc3nc(-c4cc[n+](C)cc4)cs3)CS[C@H]12)c1nsc(NP(=O)(O)O)n1  Parvimonas micra            MIC90       0.25 µg/mL
1  CCC[C@@H]1C[C@@H](C(=O)N[C@@H]([C@H]2O[C@H](SC)[C@H](O)[C@@H](O)[C@H]2O)[C@H](C)Cl)N(C)C1  Parvimonas micra            MIC90         16 µg/mL
2  CO/N=C(\C(=O)N[C@@H]1C(=O)N2C(C(=O)O)=C(CSc3nc(=O)c(O)nn3C)CS[C@H]12)c1csc(N)n1  Parvimonas micra            MIC90          1 µg/mL
3                 Cc1ncc([N+](=O)[O-])n1CCO  Parvimonas micra            MIC90       0.25 µg/mL

----------
- System: Clostridium tertium
- assay.explanation: Antimicrobial activity against Clostridium tertium under anaerobic conditions after 44 hrs by CLSI-M11-47 protocol based agar dilution method
- Type: functional
The compounds listed here are annotated with their MIC90.
recorded.metric: MIC90 (µg/mL)

                                item_smiles  observed_result
0  CO/N=C(\C(=O)N[C@@H]1C(=O)N2C(C(=O)O)=C(CSc3nc(=O)c(O)nn3C)CS[C@H]12)c1csc(N)n1               64
1  CCO/N=C(\C(=O)N[C@@H]1C(=O)N2C(C(=O)[O-])=C(Sc3nc(-c4cc[n+](C)cc4)cs3)CS[C@H]12)c1nsc(NP(=O)(O)O)n1               16
2                 Cc1ncc([N+](=O)[O-])n1CCO                4
3  CCC[C@@H]1C[C@@H](C(=O)N[C@@H]([C@H]2O[C@H](SC)[C@H](O)[C@@H](O)[C@H]2O)[C@H](C)Cl)N(C)C1              128

----------
- System: Bacteroides fragilis
- assay.explanation: Antimicrobial activity against Bacteroides fragilis under anaerobic conditions after 44 hrs by CLSI-M11-47 protocol based agar dilution method
- Type: functional
recorded.metric: MIC90 (µg/mL)

compound	target.of.assay	observed.result
CCC[C@@H]1C[C@@H](C(=O)N[C@@H]([C@H]2O[C@H](SC)[C@H](O)[C@@H](O)[C@H]2O)[C@H](C)Cl)N(C)C1 [CLINDAMYCIN]	Bacteroides fragilis	128
Cc1ncc([N+](=O)[O-])n1CCO [METRONIDAZOLE]	Bacteroides fragilis	2
CO/N=C(\C(=O)N[C@@H]1C(=O)N2C(C(=O)O)=C(CSc3nc(=O)c(O)nn3C)CS[C@H]12)c1csc(N)n1 [CEFTRIAXONE]	Bacteroides fragilis	64
CCO/N=C(\C(=O)N[C@@H]1C(=O)N2C(C(=O)[O-])=C(Sc3nc(-c4cc[n+](C)cc4)cs3)CS[C@H]12)c1nsc(NP(=O)(O)O)n1 [CEFTAROLINE FOSAMIL]	Bacteroides fragilis	64

----------
MIC90 by entry:
- Tested on: Clostridium butyricum
- assay.explanation: Antimicrobial activity against Clostridium butyricum under anaerobic conditions after 44 hrs by CLSI-M11-47 protocol based agar dilution method
- Format: functional
recorded.metric: MIC90 (µg/mL)

>>> print(df.to_string())
                                item_smiles  unit_descriptor  observed_result
0                 Cc1ncc([N+](=O)[O-])n1CCO            µg/mL                4
1  CCO/N=C(\C(=O)N[C@@H]1C(=O)N2C(C(=O)[O-])=C(Sc3nc(-c4cc[n+](C)cc4)cs3)CS[C@H]12)c1nsc(NP(=O)(O)O)n1            µg/mL               16
2  CCC[C@@H]1C[C@@H](C(=O)N[C@@H]([C@H]2O[C@H](SC)[C@H](O)[C@@H](O)[C@H]2O)[C@H](C)Cl)N(C)C1            µg/mL              128
3  CO/N=C(\C(=O)N[C@@H]1C(=O)N2C(C(=O)O)=C(CSc3nc(=O)c(O)nn3C)CS[C@H]12)c1csc(N)n1            µg/mL               64

----------
- Test system: Prevotella melaninogenica
- assay.explanation: Antimicrobial activity against Prevotella melaninogenica under anaerobic conditions after 44 hrs by CLSI-M11-47 protocol based agar dilution method
- Type: functional
Documented MIC50 across a set of compounds
recorded.metric: MIC50 (µg/mL)

compound	target.of.assay	relation.qualifier	observed.result
CO/N=C(\C(=O)N[C@@H]1C(=O)N2C(C(=O)O)=C(CSc3nc(=O)c(O)nn3C)CS[C@H]12)c1csc(N)n1 [CEFTRIAXONE]	Prevotella melaninogenica	=	2
Cc1ncc([N+](=O)[O-])n1CCO [METRONIDAZOLE]	Prevotella melaninogenica	=	0.5
CCC[C@@H]1C[C@@H](C(=O)N[C@@H]([C@H]2O[C@H](SC)[C@H](O)[C@@H](O)[C@H]2O)[C@H](C)Cl)N(C)C1 [CLINDAMYCIN]	Prevotella melaninogenica	≤	0.03
CCO/N=C(\C(=O)N[C@@H]1C(=O)N2C(C(=O)[O-])=C(Sc3nc(-c4cc[n+](C)cc4)cs3)CS[C@H]12)c1nsc(NP(=O)(O)O)n1 [CEFTAROLINE FOSAMIL]	Prevotella melaninogenica	=	2

----------
- Test system: Clostridium butyricum
- assay.explanation: Antimicrobial activity against Clostridium butyricum under anaerobic conditions after 44 hrs by CLSI-M11-47 protocol based agar dilution method
- Assay type: functional
recorded.metric: MIC50

>>> df
                                item_smiles        target_of_assay  recorded_metric  observed_result
0                 Cc1ncc([N+](=O)[O-])n1CCO  Clostridium butyricum            MIC50        0.5 µg/mL
1  CCO/N=C(\C(=O)N[C@@H]1C(=O)N2C(C(=O)[O-])=C(Sc3nc(-c4cc[n+](C)cc4)cs3)CS[C@H]12)c1nsc(NP(=O)(O)O)n1  Clostridium butyricum            MIC50        0.5 µg/mL
2  CCC[C@@H]1C[C@@H](C(=O)N[C@@H]([C@H]2O[C@H](SC)[C@H](O)[C@@H](O)[C@H]2O)[C@H](C)Cl)N(C)C1  Clostridium butyricum            MIC50          2 µg/mL
3  CO/N=C(\C(=O)N[C@@H]1C(=O)N2C(C(=O)O)=C(CSc3nc(=O)c(O)nn3C)CS[C@H]12)c1csc(N)n1  Clostridium butyricum            MIC50          2 µg/mL

----------
- Test system: Actinomyces turicensis
- assay.explanation: Antimicrobial activity against Actinomyces turicensis under anaerobic conditions after 44 hrs by CLSI-M11-47 protocol based agar dilution method
- Type: functional
- stated.conditions: Schaalia turicensis
recorded.metric: MIC90 (µg/mL)

compound	relation.qualifier	observed.result
CO/N=C(\C(=O)N[C@@H]1C(=O)N2C(C(=O)O)=C(CSc3nc(=O)c(O)nn3C)CS[C@H]12)c1csc(N)n1 [CEFTRIAXONE]	=	0.5
CCO/N=C(\C(=O)N[C@@H]1C(=O)N2C(C(=O)[O-])=C(Sc3nc(-c4cc[n+](C)cc4)cs3)CS[C@H]12)c1nsc(NP(=O)(O)O)n1 [CEFTAROLINE FOSAMIL]	=	0.25
CCC[C@@H]1C[C@@H](C(=O)N[C@@H]([C@H]2O[C@H](SC)[C@H](O)[C@@H](O)[C@H]2O)[C@H](C)Cl)N(C)C1 [CLINDAMYCIN]	=	128
Cc1ncc([N+](=O)[O-])n1CCO [METRONIDAZOLE]	>	32

----------
Measured MIC50, listed per entry for reference.
- System: Clostridium aldenense
- assay.explanation: Antimicrobial activity against Clostridium aldenense under anaerobic conditions after 44 hrs by CLSI-M11-47 protocol based agar dilution method
- Assay type: functional
- stated.conditions: Enterocloster aldenensis

molecule	MIC50 / µg/mL
CCC[C@@H]1C[C@@H](C(=O)N[C@@H]([C@H]2O[C@H](SC)[C@H](O)[C@@H](O)[C@H]2O)[C@H](C)Cl)N(C)C1 [CLINDAMYCIN]	0.5
CCO/N=C(\C(=O)N[C@@H]1C(=O)N2C(C(=O)[O-])=C(Sc3nc(-c4cc[n+](C)cc4)cs3)CS[C@H]12)c1nsc(NP(=O)(O)O)n1 [CEFTAROLINE FOSAMIL]	1
CO/N=C(\C(=O)N[C@@H]1C(=O)N2C(C(=O)O)=C(CSc3nc(=O)c(O)nn3C)CS[C@H]12)c1csc(N)n1 [CEFTRIAXONE]	4
Cc1ncc([N+](=O)[O-])n1CCO [METRONIDAZOLE]	0.06
